target: serum albumin (UniProt P02768); assay: relative binding activity against HuNb3-11; method not described
Sequence (P02768 25-609 limits assumed): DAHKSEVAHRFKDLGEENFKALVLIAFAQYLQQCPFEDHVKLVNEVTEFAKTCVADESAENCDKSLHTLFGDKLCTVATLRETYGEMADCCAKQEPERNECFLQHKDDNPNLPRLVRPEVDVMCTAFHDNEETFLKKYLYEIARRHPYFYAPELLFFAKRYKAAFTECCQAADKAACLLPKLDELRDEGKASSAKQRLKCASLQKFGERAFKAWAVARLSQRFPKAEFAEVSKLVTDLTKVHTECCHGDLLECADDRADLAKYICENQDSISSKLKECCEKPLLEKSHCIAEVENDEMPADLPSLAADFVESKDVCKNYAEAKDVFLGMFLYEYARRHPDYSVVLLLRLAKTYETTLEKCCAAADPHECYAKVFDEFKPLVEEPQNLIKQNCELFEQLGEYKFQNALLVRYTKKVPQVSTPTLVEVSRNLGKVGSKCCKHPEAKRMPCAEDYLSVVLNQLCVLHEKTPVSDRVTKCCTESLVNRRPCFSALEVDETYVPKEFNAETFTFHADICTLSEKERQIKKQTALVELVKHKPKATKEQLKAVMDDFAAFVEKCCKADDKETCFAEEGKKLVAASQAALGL
Outcome measure: Relative binding activity EC50
Remember to quote the unit after the number.

Some binders with known Relative binding activity EC50 results, for comparison:
anti-serum albumin single domain antibody Alb Nb4 (VHH) VHH: EVQLQESGGGLVEPGGSLRLSCVASGFTFQHYAMSWVRQAPGKGLEWVSSISTVGGGTSYADSVKGRFTMSRDNAKNTLYLQLNSLKSEDTAMYYCVRGWHPDVPRPLGQGTLVTVSS	71%
anti-serum albumin single domain antibody Alb Nb3 (VHH) VHH: EVQLQESGGGLVEPGGSLRLSCVASGFTFQHYAMSWVRQAPGKGLEWVSSISIVGGGTSYADSVKGRFTMSRDNAKNTLYLQLNSLKSEDTAMYYCVRGWHPDVPRPLGQGTLVTVSS	80%
anti-serum albumin single domain antibody Alb Nb1 (VHH) VHH: EVQLQESGGGLVEPGGSLRLSCVASGFTFQHYAMSWVRQAPGKGLEWVSSISLVGGGTSYADSVKGRFTMSRDNAKNTLYLQLNSLKSEDTAMYYCVRGWHPDVPRPLGQGTLVTVSS	92%

Consider now this further binder.
-- ask Please look up its Relative binding activity EC50: anti-serum albumin single domain antibody Alb Nb2 (VHH) VHH: EVQLQESGGGLVEPGGSLRLSCVASGFTFQHYAMSWVRQAPGKGLEWVSSISVVGGGTSYADSVKGRFTMSRDNAKNTLYLQLNSLKSEDTAMYYCVRGWHPDVPRPLGQGTLVTVSS
-- reply 95%
